Catalogue of koff readings, one per entry.
# target.of.assay: T1, soluble human GPNMB (recombinant extracellular domain) (human, UniProt Q14956 23-498)
# T1 construct: also called huGPNMB; recombinant human GPNMB extracellular domain; not shown: C-terminal polyhistidine or Avi-His tag
# T1 sequence: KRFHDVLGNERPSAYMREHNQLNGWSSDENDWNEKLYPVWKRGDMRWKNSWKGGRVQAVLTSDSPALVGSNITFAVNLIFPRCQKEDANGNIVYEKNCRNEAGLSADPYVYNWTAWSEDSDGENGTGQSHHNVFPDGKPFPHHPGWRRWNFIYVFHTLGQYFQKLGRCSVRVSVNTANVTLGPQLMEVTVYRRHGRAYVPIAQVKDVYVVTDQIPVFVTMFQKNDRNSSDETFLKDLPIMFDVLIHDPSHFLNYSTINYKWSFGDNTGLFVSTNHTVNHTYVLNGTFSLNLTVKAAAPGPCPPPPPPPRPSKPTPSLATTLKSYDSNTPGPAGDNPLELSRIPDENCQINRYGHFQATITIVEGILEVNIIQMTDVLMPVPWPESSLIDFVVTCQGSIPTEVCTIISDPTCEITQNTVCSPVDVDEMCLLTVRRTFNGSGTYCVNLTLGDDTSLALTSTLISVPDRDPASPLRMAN
# assay.details: SPR Carterra, Ab immobilized
// note: answer is a bare numeric in s⁻¹

Exam item: Recorded koff of anti-GPNMB antibody GPN-07 (antibody, human IgG1, V domains shown, chimeric) VH: QVQLQQSGAEQVKPGASVKLSCKASGYTFTSYYMYWVKQRPGQGLEWIGEINPSNGGTYFNEKFKSKATLTVDKSSSTAYMHLSSLTSEDSAVYYCTRGGTYYAYWGQGTLVTVSA VL: DIQMTQSPSSLSASLGERVSLTCRASQEMSGHLSWLQQKPDGTIKRLIYAASTLDSGVPKRFSGSRSGSDYSLTISSLESEDFADYYCLQYASYPYTFGGGTKLEIK , please.
Marked response: 0.00029

Exam item: Field entry: anti-GPNMB antibody GPN-31 (antibody, human IgG1, V domains shown, chimeric) VH: EVQLQQSGPELVKPGASVKISCKASGYSFTGYYMNWVKQSPEKNLEWIGEINPNTGGTTYNQKFKAKATLTVDKSSTTAYMQLKSLTSEDSAVYYCTRPASWFDYWGQGTLVTVSA VL: DIQMTQSPSSLSASLGERVSLTCRASQEISGHLSWLQQKPDGTIKRLIYAASTLDSGVPKRFSGRRSGSDYSLTISSLESEDFADYYCLQYASYPYTFGGGTKLAIK
Marked response: 0.00028

Exam item: Field entry: anti-GPNMB antibody GPN-48 (antibody, human IgG1, V domains shown, chimeric) VH: QVQLQQSGPELVKPGASVKLSCRASGYGFSSFWMNWVKQRPGKGLEWIGRIYPGKGDTLYNGKFKDKATLTADESSSTAYMQLSSLTSEDSAVYFCARSIYYYDYWYFDVWDTGTTVTVSS VL: DIVMTQSHKFMSTSVGDRVNITCKASQDVNSAIAWYQQKPGQSPKLLIYSASYRFIGVPDRFTGSGSGTGFTFTISSVQAEDLAVYYCQQHYTTPLTFGAGTKLELK
Marked response: 0.00037

Exam item: Field entry: anti-GPNMB antibody GPN-43 (antibody, human IgG1, V domains shown, chimeric) VH: EVQLQQSGPELVKPGASVKISCKASGYTFTDYYMNWVRQSHGKSLEWIGDINPYHGGSTYNQKIKVKATLTVDKSSSTAYMELRSLTSEDSAVYYCARNWPYFDYWGQGTTLTVSS VL: DIQMTQSPASLSASVGETVTITCRASENIYSFLVWYQQKQGKSPQLLVYNAKTLAEGVPSRFSGSGSGTQFSLKISSLQPEDFGSYYCQHHFGTPPYTFGGGTKLEIK
Marked response: 0.002

Exam item: Field entry: anti-GPNMB antibody GPN-37 (antibody, human IgG1, V domains shown, chimeric) VH: EVQLVESGGGLVQPGRSLKLSCAASGFTFSSKSGMAWVRQAPTKGLEWVASISNGGGDTYYRDSVKGRFTISRDNAKNTQYLQMDSLRPEDTATYYCARHRDYGYDAYFDYWGQGVMVTVSS VL: DIQMTQSPASLSASLGETVTIECLASEDIYSSLAWYQQKPGKSPQLLIYDASSLQDGVPSRFSGSESGTQYSLEINSLQSEDAATYFCQQHHDYPYTFGAGTKLELK
Marked response: 0.00011
